# method.description: Distribution coefficient, log D in octanol and […] at pH 7.4
# Format: physicochemical
logD values for the molecules below.
measurement.type: logD

{"columns": ["compound.smiles", "val"],
 "data": [
  ["COc1ccc(C[C@H](NC(=N)N)C(=O)N2CCC[C@@H]2C(=O)NCC(=O)N[C@@H](Cc2c[nH]c3ccccc23)C(=O)N[C@@H](Cc2ccc(Cl)cc2)C(N)=O)cc1", 1.64],
  ["COc1ccc(C[C@H](N=C(N)N)C(=O)N2CCC[C@H]2C(=O)N[C@@H](Cc2c[nH]c3ccccc23)C(=O)N[C@@H](Cc2ccc(Cl)cc2)C(N)=O)cc1", 1.33],
  ["COc1ccc(C[C@H](N=C(N)N)C(=O)N2CCC[C@H]2C(=O)N[C@@H](Cc2c[nH]c3ccccc23)C(=O)N[C@@H](Cc2ccccc2)C(N)=O)cc1", 0.21],
  ["COc1ccc(C[C@H](N=C(N)N)C(=O)N2CCC[C@@H]2C(=O)NCC(=O)N[C@@H](Cc2c[nH]c3ccccc23)C(=O)N[C@@H](Cc2ccccc2)C(N)=O)cc1", 0.78]
]}

Taken from ChEMBL document CHEMBL1146349.
